Target: Hck (UniProt P08631)
Sequence (P08631 whole entry, looked up): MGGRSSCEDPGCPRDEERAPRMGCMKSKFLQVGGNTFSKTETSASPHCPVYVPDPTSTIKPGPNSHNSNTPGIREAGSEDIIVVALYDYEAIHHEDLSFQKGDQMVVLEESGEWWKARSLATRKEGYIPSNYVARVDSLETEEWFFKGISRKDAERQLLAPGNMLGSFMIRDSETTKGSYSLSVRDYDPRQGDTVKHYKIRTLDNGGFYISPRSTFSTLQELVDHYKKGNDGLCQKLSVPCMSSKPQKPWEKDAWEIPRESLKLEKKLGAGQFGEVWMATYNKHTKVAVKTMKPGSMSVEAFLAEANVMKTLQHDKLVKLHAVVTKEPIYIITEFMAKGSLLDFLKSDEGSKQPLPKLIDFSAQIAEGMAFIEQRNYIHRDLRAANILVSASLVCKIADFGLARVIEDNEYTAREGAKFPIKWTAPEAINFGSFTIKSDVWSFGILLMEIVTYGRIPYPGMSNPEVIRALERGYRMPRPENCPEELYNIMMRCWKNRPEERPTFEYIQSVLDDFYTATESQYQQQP
Assay: phosphorylation enrichment, bacterial display (enrichment ratio); higher = better substrate or ligand; peptides without Tyr show the background;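 further: 11-residue human phosphosite peptides and single-mutation variants displayed on the E. coli surface, counted by deep sequencing, each peptide's frequency after selection divided by its frequency in the unselected input library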;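 further: frequency after pTyr selection over input frequency; kinase dosed for 20-30% of maximal phosphorylation in three min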
So basically every entry gets a class from its phosphorylation enrichment, ranges being low group (below 0.4), middle group (0.4 to below 0.6), high group (0.6 or more)

Worked examples, 5 sequences total:
Asked: Hi, small favor: classify GLSAPYVKIHL [SYT2_Y309_D307A] by its phosphorylation enrichment when you get a moment.
Given back: middle group

Asked: Hi, small favor: classify FDSPFYQDSLP [TSC1_Y508_R509Q] by its phosphorylation enrichment when you get a moment.
Given back: middle group

Asked: Hi, small favor: classify ENKGVYVPMSG [IVD_Y277_L279P] by its phosphorylation enrichment when you get a moment.
Given back: middle group

Asked: Hi, small favor: classify IHHIDYYKKTT [FGFR1_Y653] by its phosphorylation enrichment when you get a moment.
Given back: middle group

Asked: Hi, small favor: classify KASGKYFAMKI [AKT3_Y173_YF] by its phosphorylation enrichment when you get a moment.
Given back: low group

New cases:
Asked: Hi, small favor: classify SELVRYDARVH [MET_Y971] by its phosphorylation enrichment when you get a moment.
Given back: middle group

Asked: Hi, small favor: classify KGRAGYTTVAV [RET_Y752] by its phosphorylation enrichment when you get a moment.
Given back: low group

Asked: Hi, small favor: classify RMDGTYACSFT [FLNB_Y704_YF] by its phosphorylation enrichment when you get a moment.
Given back: high group

Asked: Hi, small favor: classify LKGQVDILGRE [ASS1_Y359_Y359D] by its phosphorylation enrichment when you get a moment.
Given back: middle group

Asked: Hi, small favor: classify FYNSEYGELSE [FLT4_Y1337] by its phosphorylation enrichment when you get a moment.
Given back: high group

Asked: Hi, small favor: classify PSGPAYRGAVP [ASAH1_Y43_T42A] by its phosphorylation enrichment when you get a moment.
Given back: middle group

Asked: Hi, small favor: classify SEVVPYEPPEV [TP53_Y220_V216E] by its phosphorylation enrichment when you get a moment.
Given back: middle group

Where these numbers come from: the supplement of paper PMC10065799
